Entry source: PubChem BioAssay AID434970

# Tested on: intestinal alkaline phosphatase [Mus musculus]
# measurement-protocol: mouse intestinal phosphatase enzyme activation – biochemical, luminescence, single concentration, confirmation (AID 434970)
# reported-conditions: purified mouse IAP, CDP-Star luminescence, 30 min, at 10 µM; measured here: IAP activation factor, stronger effect = higher value
Hit rate of the full screen: of about 11,000 compounds, about 310 (2.8%) were called active. Only a selection was taken, and actives are over-represented in it overall.
value-kind: activation factor
Provide a numeric answer; units are not to be included.

Given the compound O=C(Nc1ccccc1)Nc1nc(-c2ccc(F)cc2)cs1 , what is its reported activation factor?
1.62

COc1cccc(-c2csc(NC(=O)Nc3ccccc3)n2)c1 ?
2.11

Alright, here's another compound for you.
Given the compound O=C(Nc1nc(-c2cccs2)cs1)c1ccc(Cl)cc1 , what is its reported activation factor?
0.793

----------
# System: intestinal alkaline phosphatase [Mus musculus]
# measurement-protocol: mouse intestinal phosphatase enzyme activation – biochemical, luminescence, single concentration, confirmation (AID 434970)
# reported-conditions: purified mouse IAP, CDP-Star luminescence, 30 min, at 10 µM
The campaign covered roughly 11,000 compounds. About 310 (2.8%) were called active. No stated cut-off is given here; in the data, active means activity change below about -85%; inactive means the rest. The sample as a whole holds a higher share of actives than the screen did.
Assign a class; possible classes are label 1 (active), label 0 (inactive)

What did this assay record as the result for COC(=O)c1c(NC(=O)c2ccccc2)sc(Cc2ccccc2)c1C ?
label 0

CCN(CC)S(=O)(=O)c1ccc(NC(=O)CN(c2cccc(F)c2)S(C)(=O)=O)cc1 ?
label 0

COc1ccc(CN(C(=O)c2ccco2)C2CC(C)N(C)CC2C)cc1 (configuration not stated) ?
label 0

Cc1ccc(S(=O)(=O)N2C[C@@H]3[C@H]4CC[C@H](C4)[C@@H]3[C@@H](C)[C@@H]2c2ccn([Si](C(C)C)(C(C)C)C(C)C)c2)cc1 ?
label 0

COc1cccc(OCC(=O)Nc2ccccc2NC(C)=O)c1 ?
label 0

CCN(CC)S(=O)(=O)c1cccc(NC(=O)Nc2cccc(C(F)(F)F)c2)c1 ?
label 1

COc1cccc(C(CC(=O)Nc2cccc3ccccc23)NC(=O)c2ccccc2)c1 (configuration not stated) ?
label 1

O=C(Nc1ccc(OC(F)F)cc1)Nc1cccc(C(F)(F)F)c1 ?
label 1

O=C(Nc1ccccc1)Nc1cccc(C(F)(F)F)c1 ?
label 0

Cc1ccc(Nc2c3c(nc4ncnn24)CC(C)CC3)cc1 (configuration not stated) ?
label 0

New cases:
What did this assay record as the result for CCCc1c(O)nc(SC2CC(=O)N(c3cc(OC)ccc3OC)C2=O)[nH]c1=O (configuration not stated) ?
label 0

COc1ccc(N2C(=O)CCC(C(=O)NCc3cccnc3)C2c2ccc(OC)c(OC)c2)cc1 (configuration not stated) ?
label 0

Cn1nc(OCc2ccccc2)ccc1=O ?
label 0

CCSc1sccc1C1C(C#N)=C(N)N(c2cccnc2)C2=C1C(=O)CCC2 (configuration not stated) ?
label 0

CC(NC(=S)NC1CCC(C(C)(C)C)CC1)c1ccccc1 (configuration not stated) ?
label 0

----------
# System: intestinal alkaline phosphatase [Mus musculus]
# measurement-protocol: mouse intestinal phosphatase enzyme activation – biochemical, luminescence, single concentration, confirmation (AID 434970)
# reported-conditions: purified mouse IAP, CDP-Star luminescence, 30 min, at 10 µM; measured here: IAP activation factor, stronger effect = higher value
In all, about 11,000 compounds went through this assay and about 310 (2.8%) were called active. The full list was thinned out, with actives kept by preference.
Decide using activation factor: a value greater than or equal to 2 is Condition met, a smaller one is Condition not met.

Before answering, review these 8 worked examples.
Form field: activation factor at least 2? Entry: CSc1nccc(-c2nn(-c3ccc(C)cc3)ccc2=O)n1
Condition not met

CCOC(=O)c1ccc(N2CCN(c3ccccc3F)CC2)c(NC(=O)Nc2ccccc2)c1 ?
Condition met

COc1cccc(NC(=S)NC2CC3CCCC(C2)N3CC(C)C)c1 (stereo not given) ?
Condition not met

COc1ccc(S(=O)(=O)N(C)C[C@H]2Oc3ccc(NC(=O)Nc4ccc5c(c4)OCO5)cc3C(=O)N([C@H](C)CO)C[C@@H]2C)cc1 ?
Condition not met

COc1ccc(NC(=O)Nc2ccc3c(c2)C(=O)N([C@H](C)CO)C[C@H](C)[C@@H](CN(C)S(=O)(=O)c2ccc(OC)cc2)O3)cc1 ?
Condition not met

CC(C)C(=O)Nc1ncc(C(F)(F)F)cc1Cl ?
Condition not met

COc1ccccc1-c1cc(C(F)(F)F)nc(N2CCCC2)n1 ?
Condition not met

COC(=O)c1ccc(N2CCN(C)CC2)c(NC(=O)c2cc3ccccc3o2)c1 ?
Condition not met

New cases:
Form field: activation factor at least 2? Entry: CC(NC(=S)Nc1ccc(S(=O)(=O)N2CCOCC2)cc1)C1CC2CCC1C2 (stereo not given)
Condition met

CCc1ccc(NC(=S)NC2CC3CCCC(C2)N3Cc2ccccc2)cc1 (stereo not given) ?
Condition met

COc1ccc(CN2C3CCCC2CC(NC(=O)Nc2cccc(C)c2)C3)cc1 (stereo not given) ?
Condition met

COc1cccc(NC(=O)NC2CCN(Cc3nnnn3Cc3ccc4c(c3)OCO4)CC2)c1 ?
Condition not met

CCOC(=O)c1cccc(NC(=O)Nc2cc(OC)ccc2OC)c1 ?
Condition not met

Cc1ccc(C)c(NC(=S)NC2CC3CCCC(C2)N3CC(C)C)c1 (stereo not given) ?
Condition not met

Cc1cccc(NC(=S)NC2CC3CCCC(C2)N3CC(C)C)c1 (stereo not given) ?
Condition met

COc1ccc(C2(CNC(=O)Cc3ccc(OC)c(OC)c3)CCOCC2)cc1 ?
Condition not met

CCOC(=O)c1ccc(N2CCN(c3ccc(F)cc3)CC2)c(NC(=O)Nc2cccc(OC)c2)c1 ?
Condition not met

Cc1c(C(=O)N2CCN(c3ncccn3)CC2)sc2nc3n(c(=O)c12)CCCC3 ?
Condition not met

C[C@H](CO)N1C[C@H](C)[C@@H](CN(C)S(=O)(=O)c2ccccc2)Oc2ccc(NC(=O)Nc3ccccc3)cc2C1=O ?
Condition met

O=C(Nc1ccccc1)NC1CC2CCC(C1)N2Cc1nnnn1Cc1ccc2c(c1)OCO2 (stereo not given) ?
Condition met

----------
# Tested on: intestinal alkaline phosphatase [Mus musculus]
# measurement-protocol: mouse intestinal phosphatase enzyme activation – biochemical, luminescence, single concentration, confirmation (AID 434970)
# reported-conditions: purified mouse IAP, CDP-Star luminescence, 30 min, at 10 µM; measured here: IAP activation factor, stronger effect = higher value
Hit rate of the full screen: of about 11,000 compounds, about 310 (2.8%) were called active. The sample holds actives, similar compounds and a random draw of the others, so the mix is not that of the screen.
value-kind: activation factor
Provide a numeric answer; units are not to be included.

Recorded activation factor, per entry:
Give activation factor (intestinal alkaline phosphatase [Mus musculus]) of the following compound: CCN(CC)C(=O)CSc1nc(-c2cccs2)cc(-c2cccs2)c1C#N
0.778

FC(F)(F)c1nnc2sc(-c3cccs3)nn12 ?
0.967

New cases:
Give activation factor (intestinal alkaline phosphatase [Mus musculus]) of the following compound: CCSc1cc(C2C(C(=O)OC)=C(C)NC3=C2C(=O)CCC3)c(C)o1 (stereo not drawn)
0.954

C[C@]12c3[nH]c4ccc(Cl)cc4c3CCN1C(=O)[C@@H](CC(=O)NCc1cccc(C(F)(F)F)c1)C[C@@H]2C(=O)N1CCCCC1 ?
1.26

O=C(NCc1ccccc1)NC1CC2CCC(C1)N2Cc1ccco1 (stereo not drawn) ?
1.08

COc1ccc(N2CCN(S(=O)(=O)/C=C/c3ccccc3)CC2)cc1 ?
1.07

O=C(Nc1ccc(SC(F)F)cc1)c1cccc2nc3ccccc3nc12 ?
0.946

COc1ccc(C2CC(c3ccccc3)n3nnnc3N2)cc1 (stereo not drawn) ?
1.15

Cc1ccc2c(Cl)c(C(=O)Nc3cc(C)on3)sc2c1 ?
0.873

FC(F)Sc1ccc(NC(=S)NC2CCCC2)cc1 ?
1.23

CCc1cccc(CC)c1NC(=O)CN1C2CCCC1CC(NC(=O)Nc1cccc(OC)c1)C2 (stereo not drawn) ?
2.36

COc1cc(C(=O)NC2CC3CCCC(C2)N3CC(=O)Nc2ccccc2)cc(OC)c1OC (stereo not drawn) ?
1.07

O=C(Nc1cccn(Cc2ccc(F)cc2)c1=O)NC1CCCCC1 ?
0.962

Cc1ccccc1NC1=C(Cl)C(=O)OC1OC(C)C (stereo not drawn) ?
0.976

COc1ccc(NC(=O)NC2CC3CCCC(C2)N3Cc2ccccc2)cc1 (stereo not drawn) ?
2.71

----------
# Test system: intestinal alkaline phosphatase [Mus musculus]
# measurement-protocol: mouse intestinal phosphatase enzyme activation – biochemical, luminescence, single concentration, confirmation (AID 434970)
# reported-conditions: purified mouse IAP, CDP-Star luminescence, 30 min, at 10 µM; stronger effect = lower value
About 310 (2.8%) of roughly 11,000 compounds were called active. The entries come from a sample that favours actives as a whole.
value-kind: activity change, negative = activation (%)
A number alone suffices; assume %.

Recorded activity change, negative = activation, per entry:
Given the molecule CCN1C(=O)[C@H]2[C@H]3CN=C(SC)N3[C@@](CC)(C(=O)OC)[C@H]2C1=O , what is its reported activity change, negative = activation?
4.3

CCOC(=O)C1=C(C)OC(N)=C(C#N)C1c1cc2cc(C)ccc2nc1N1CCCCC1 (stereo unspecified) ?
-1.65

COc1ccc(N2CCN(S(=O)(=O)/C=C/c3ccccc3)CC2)cc1 ?
-7.05

O=C(NCCN1CCN(Cc2ccccc2)CC1)Nc1cc(Cl)cc(Cl)c1 ?
-42.5

O=C(CCCOc1ccccc1)Nc1nncs1 ?
-1.6

New cases:
Given the molecule Cc1ccc(S(=O)(=O)N(CC(=O)Nc2cccc(N(C)S(C)(=O)=O)c2)c2ccc(Cl)c(Cl)c2)cc1 , what is its reported activity change, negative = activation?
-73.1

O=C(Nc1cc(Cl)cc(Cl)c1)N1CCCC1 ?
-62.2

O=C(Nc1nccs1)C1CC2CCC1C2 (stereo unspecified) ?
-0.6

CCOC(=O)C1=CN(Cc2ccco2)S(=O)(=O)N(CC)C1c1ccc(C(F)(F)F)cc1 (stereo unspecified) ?
10.7

COc1ccc(C2(CNC(=O)Cc3ccc(OC)c(OC)c3)CCOCC2)cc1 ?
0.05

CCCc1cc(=O)oc2cc3occ(C)c3cc12 ?
8.35
